Source: patent US9962369B2

- Assay Procedure: Transdermal delivery of melatonin: plasma level of melatonin after applying composition to skin of a subject
- Assay Context: human, plasma, topical, Plasma level of melatonin, salt of tyrosine isopropyl ester, A− = I^−, 199.43 mM, 0.30 mL applied, 0 hr after transdermal administration
Value Type: concentration at 0 h (µg/mL)
Reply numerically in µg/mL, unit not repeated.

concentration at 0 h reported for this compound COc1ccc2[nH]cc(CCNC(C)=O)c2c1 [Melatonin] : 0

----------
- Assay Procedure: Transdermal delivery of melatonin: plasma level of melatonin after applying composition to skin of a subject
- Assay Context: human, plasma, topical, 3 mg, Plasma level of melatonin, Isoleucine isopropyl ester 333.76 mM, 0.60 mL applied to skin, 2 hr after transdermal administration
Value Type: concentration at 2 hr (ng/mL)
Reply numerically in ng/mL, unit not repeated.

concentration at 2 hr reported for this compound COc1ccc2[nH]cc(CCNC(C)=O)c2c1 [Melatonin] : 1.8
